Tested on: A431
Assay: Growth suppression activity to human tumor cell line (Evaluation 2)
Assay type: cell-based
Details: Homo sapiens, A-431, 72 h, Human epidermoid carcinoma, A431, 3 days
Description: Human tumor cell lines different in type were suspended in mediums, seeded in individual wells of a multi-well plate and cultured. On the day after initiation of culture, serially diluted solutions of a compound were added. Culture was carried out for further 3 days. Cells were counted by a CellTiter-Glo (manufactured by Promega KK) in accordance with the protocol recommended by Promega KK. […]
pIC50: −log10 of the molar value.
Readout: pIC50

1: Nc1ncnc2c1c(Br)cn2[C@@H]1O[C@H](CO)[C@@H](O)[C@@H]1F [Comparative Example 1]
2: Nc1ncnc2c1c(Cl)cn2[C@@H]1O[C@H](CO)[C@@H](O)[C@@H]1F [Comparative Example 6]
Name the one with the greater pIC50 value, either 1 or 2 as given. Please reply using the label of the selected record.
1

* * *

Test system: A427
Experiment: Growth suppression activity to human tumor cell line (Evaluation 3)
Format: cell-based
Conditions: A-427, 72 h; Human lung cancer, A427, 3 days
Readout: IC50 (nM)

I: Nc1ncnc2c1c(I)cn2[C@@H]1O[C@H](CO)C(O)C1(F)F (some centres unmarked) [Comparative Example 7, reference compound]
II: Nc1ncnc2c1c(I)cn2[C@@H]1O[C@H](CO)[C@@H](O)[C@@H]1F [Comparative Example 2]
# return whichever of I and II has the smaller IC50 Please reply using the label of the selected record.
II
(II: 98 nM, I: 1140 nM)

* * *

System: HT29
Assay: Growth suppression activity in human tumor cell line
Format: cell-based
Conditions: HT-29, 72 h; Human colorectal cancer, HT29, 3 days
Readout: IC50 (nM)

Molecule: Nc1ncnc2c1c(I)cn2[C@@H]1O[C@H](CO)[C@@H](O)[C@@H]1F
System: HT29
Endpoint result: 130

Molecule: Nc1ncnc2c1c(Br)cn2[C@@H]1O[C@H](CO)[C@@H](O)[C@@H]1F
System: HT29
Endpoint result: 110

* * *

System: A549
Experiment: Growth suppression activity to human tumor cell line (Evaluation 2)
Format: cell-based
Details: A549, 72 h, Human lung cancer, A549, 3 days
Readout: IC50 (nM)

A: Nc1ncnc2c1c(Cl)cn2[C@@H]1O[C@H](CO)[C@@H](O)[C@@H]1F
B: Nc1ncnc2c1c(Br)cn2[C@@H]1O[C@H](CO)[C@@H](O)[C@@H]1F
Name the one with the greater IC50 value, either A or B as given. Please reply using the label of the selected record.
A
(A: 54 nM, B: 14 nM)

* * *

Test system: SPC111
Test: Growth suppression activity in human tumor cell line
Assay type: cell-based
Conditions: 72 h; Human lung cancer, SPC111, 3 days
Readout: pIC50
Scale note: pIC50 = -log10(concentration in M).

Return pIC50 for the following compound: "Nc1ncnc2c1c(Br)cn2[C@@H]1O[C@H](CO)[C@@H](O)[C@@H]1F"
6.44

* * *

Test system: RPMI8226
Experiment: Growth suppression activity in human tumor cell line
Assay type: cell-based
Conditions: RPMI-8226, 72 h; Human hematopoietic organ tumor, RPMI8226, 3 days
Readout: IC50 (nM)
Lab book: enter the figure in nM, no units written.

Return IC50 for the following compound: "Nc1ncnc2c1c(Br)cn2[C@@H]1O[C@H](CO)[C@@H](O)[C@@H]1F"
340

* * *

Tested on: 786-0
Experiment: Growth suppression activity in human tumor cell line
Type: cell-based
Conditions: 72 h; Human renal cancer, 786-0, 3 days
Readout: pIC50
Scale note: pIC50 = -log10(concentration in M).

Return pIC50 for the following compound: Nc1ncnc2c1c(Br)cn2[C@@H]1O[C@H](CO)[C@@H](O)[C@@H]1F [Comparative Example 1]
6.66

* * *

Experiment: Presence of prodrug in mouse and absorbency (plasma AUC after oral administration)
Assay type: in vivo
Conditions: male, Balb/cA, mouse, 9.9 umol/kg, mice, 9.9 μmol/kg, administered compound itself in plasma, read-out: AUC0-6hr
Readout: AUC(0-t) (µM·h)
Lab book: enter the figure in µM·h, no units written.

Return AUC(0-t) for the following compound: "Nc1ncnc2c1c(Cl)cn2[C@@H]1O[C@H](CO)[C@@H](O)[C@@H]1F"
2.07
